Experiment: Lipophilicity, logD of compound at pH 7.4
Assay type: physicochemical
Conditions: buffer
experimental.endpoint: logD

>>> endpoint_result("CNS(=O)(=O)c1ccc(Nc2ncc3ccc(C(=O)N4CC[C@@H]4C)nc3n2)c(F)c1")
1.8
>>> endpoint_result("CNS(=O)(=O)c1ccc(Nc2ncc3ccc(C(=O)N4C[C@@H](C#N)[C@@H]4C)nc3n2)c(F)c1")
1.5
>>> endpoint_result("CNS(=O)(=O)c1ccc(Nc2ncc3ccc(C(=O)N4C[C@@H](OC)[C@@H]4C)nc3n2)c(F)c1")
1.7

----------
Test system: MDR1
Experiment: Efflux ratio of apparent permeability across basolateral to apical side to apical to basolateral side in MDCK-MDR1 cells at 5 uM measured for 60 to 180 mins by LC-MS/MS analysis
Format: ADME, cell-based, Canis lupus familiaris
Conditions: dog, time 60-180 min
experimental.endpoint: efflux ratio at 5 µM

>>> endpoint_result("CNS(=O)(=O)c1ccc(Nc2ncc3ccc(C(=O)N4C[C@@H](OC)[C@@H]4C)nc3n2)c(F)c1")
16
>>> endpoint_result("CNS(=O)(=O)c1ccc(Nc2ncc3ccc(C(=O)N4CC[C@@H]4C)nc3n2)c(F)c1")
13

----------
Assay: Metabolic stability in mouse liver microsomes assessed as clearance at 1 uM incubated upto 180 mins by LC/MS-MS analysis
Assay type: ADME, Microsome
experimental.endpoint: CLhep predicted at 1 µM (L/h/kg)

Solved cases (8 shown):
>>> endpoint_result("CNS(=O)(=O)c1ccc(Nc2ncc3ccc(C(=O)N4C[C@@H](F)C[C@@H]4C)nc3n2)c(F)c1")
3.36
>>> endpoint_result("CNS(=O)(=O)c1ccc(Nc2ncc3ccc(C(=O)N4C[C@H](F)[C@@H]4C)nc3n2)c(F)c1")
3.24
>>> endpoint_result("CNS(=O)(=O)c1ccc(Nc2ncc3ccc(C(=O)N4C[C@@H](F)C[C@@H]4C)cc3n2)c(C)c1")
4.14
>>> endpoint_result("CNS(=O)(=O)c1ccc(Nc2ncc3ccc(C(=O)N4C[C@@H](F)C[C@@H]4C)nc3n2)c(C)c1")
1.14
>>> endpoint_result("CNS(=O)(=O)c1ccc(Nc2ncc3ccc(C(=O)N4CCC[C@@H]4C)cc3n2)cc1")
4.56
>>> endpoint_result("C[C@H]1CCCN1C(=O)c1ccc2cnc(NC3CCN(S(C)(=O)=O)CC3)nc2c1")
2.52
>>> endpoint_result("Cc1cc(S(C)(=O)=O)ccc1Nc1ncc2ccc(C(=O)N3CCC[C@@H]3C)cc2n1")
3.48
>>> endpoint_result("CNS(=O)(=O)c1ccc(Nc2ncc3ccc(C(=O)N4C[C@@H](C#N)[C@@H]4C)nc3n2)c(F)c1")
3.18

1 = CNS(=O)(=O)c1ccc(Nc2ncc3ccc(C(=O)N4CC[C@@H]4C)nc3n2)c(F)c1
2 = CS(=O)(=O)N1CCC(Nc2ncc3ccc(C(=O)N4CCCC4)cc3n2)CC1
3 = CNS(=O)(=O)c1ccc(Nc2ncc3ccc(C(=O)N4CCC[C@@H]4C)cc3n2)c(C)c1
4 = C[C@H]1CCCN1C(=O)c1ccc2cnc(NC3CCN(S(N)(=O)=O)CC3)nc2c1
rank_up(items): orders items by reported CLhep predicted at 1 µM in ascending numerical order. Submit the labels in the order that the ranking request calls for.
2, 4, 1, 3
(2: 1.2 L/h/kg, 4: 1.8 L/h/kg, 1: 3 L/h/kg, 3: 4.5 L/h/kg)

A = CNS(=O)(=O)c1ccc(Nc2ncc3ccc(C(=O)N4C[C@H](F)C[C@@H]4C)cc3n2)c(C)c1
B = C[C@@H]1CCCN1C(=O)c1ccc2cnc(NC3CCN(S(C)(=O)=O)CC3)nc2c1
Between A and B , which one has the lower reported CLhep predicted at 1 µM value? // output: label of the selected item
B
(B: 2.22 L/h/kg, A: 4.02 L/h/kg)

Data origin: ChEMBL document CHEMBL5365513
